- System: Candida tropicalis
- PROCEDURE_SUMMARY: Antifungal activity against Candida tropicalis C 131 at 200 uM after 24 hrs relative to amphotericin B
- Format: functional

{"SUBSTANCE": "H-HFRWGKYV-NH2", "TEST_SYSTEM": "Candida tropicalis", "inhibition at 200 µM": "21%"}
{"SUBSTANCE": "H-HYKWGKYV-NH2", "TEST_SYSTEM": "Candida tropicalis", "inhibition at 200 µM": "3%"}
{"SUBSTANCE": "H-HYRWGKFV-NH2", "TEST_SYSTEM": "Candida tropicalis", "inhibition at 200 µM": "1%"}
{"SUBSTANCE": "H-HYKWGRFV-NH2", "TEST_SYSTEM": "Candida tropicalis", "inhibition at 200 µM": "23%"}
{"SUBSTANCE": "H-HFRWGKFV-NH2", "TEST_SYSTEM": "Candida tropicalis", "inhibition at 200 µM": "19%"}
{"SUBSTANCE": "H-HFRWGRFV-NH2", "TEST_SYSTEM": "Candida tropicalis", "inhibition at 200 µM": "64%"}
{"SUBSTANCE": "H-HFRWGKPV-NH2", "TEST_SYSTEM": "Candida tropicalis", "inhibition at 200 µM": "0%"}
{"SUBSTANCE": "H-HFKWGKYV-NH2", "TEST_SYSTEM": "Candida tropicalis", "inhibition at 200 µM": "0%"}
{"SUBSTANCE": "H-HYKWGKFV-NH2", "TEST_SYSTEM": "Candida tropicalis", "inhibition at 200 µM": "1%"}
{"SUBSTANCE": "H-HFKWGKFV-NH2", "TEST_SYSTEM": "Candida tropicalis", "inhibition at 200 µM": "22%"}
